// data source = paper PMC11909088

pIC50: −log10 of the molar value.
Measured pIC50 on UniProt:P00915 follows.
Sequence (P00915 whole entry): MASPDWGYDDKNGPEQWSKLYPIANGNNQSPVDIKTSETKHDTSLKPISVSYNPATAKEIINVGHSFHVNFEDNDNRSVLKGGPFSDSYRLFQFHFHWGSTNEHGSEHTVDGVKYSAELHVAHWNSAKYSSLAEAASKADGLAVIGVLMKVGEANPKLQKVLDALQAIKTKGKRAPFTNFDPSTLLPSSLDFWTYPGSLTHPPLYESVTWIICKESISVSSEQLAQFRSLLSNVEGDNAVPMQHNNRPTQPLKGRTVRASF

{"molecule": "Cc1noc(NS(=O)(=O)c2ccc(NC(=O)c3nn(-c4ccccc4)c(-c4ccccc4)c3C(=O)c3ccccc3)cc2)c1C [Compound 6g]", "pIC50": 5.78}
{"molecule": "NS(=O)(=O)c1cccc(NC(=O)c2nn(-c3ccccc3)c(-c3ccccc3)c2C(=O)c2ccccc2)c1 [Compound 6b]", "pIC50": 6.33}

---

target: hCA II (Homo sapiens)
pIC50: −log10 of the molar value.

{"molecularString": "NS(=O)(=O)c1ccccc1NC(=O)c1nn(-c2ccccc2)c(-c2ccccc2)c1C(=O)c1ccccc1", "pIC50": 5.19}
